# STUDY_SYSTEM: HER2 (Homo sapiens)
# Sequence (P04626 23-1255): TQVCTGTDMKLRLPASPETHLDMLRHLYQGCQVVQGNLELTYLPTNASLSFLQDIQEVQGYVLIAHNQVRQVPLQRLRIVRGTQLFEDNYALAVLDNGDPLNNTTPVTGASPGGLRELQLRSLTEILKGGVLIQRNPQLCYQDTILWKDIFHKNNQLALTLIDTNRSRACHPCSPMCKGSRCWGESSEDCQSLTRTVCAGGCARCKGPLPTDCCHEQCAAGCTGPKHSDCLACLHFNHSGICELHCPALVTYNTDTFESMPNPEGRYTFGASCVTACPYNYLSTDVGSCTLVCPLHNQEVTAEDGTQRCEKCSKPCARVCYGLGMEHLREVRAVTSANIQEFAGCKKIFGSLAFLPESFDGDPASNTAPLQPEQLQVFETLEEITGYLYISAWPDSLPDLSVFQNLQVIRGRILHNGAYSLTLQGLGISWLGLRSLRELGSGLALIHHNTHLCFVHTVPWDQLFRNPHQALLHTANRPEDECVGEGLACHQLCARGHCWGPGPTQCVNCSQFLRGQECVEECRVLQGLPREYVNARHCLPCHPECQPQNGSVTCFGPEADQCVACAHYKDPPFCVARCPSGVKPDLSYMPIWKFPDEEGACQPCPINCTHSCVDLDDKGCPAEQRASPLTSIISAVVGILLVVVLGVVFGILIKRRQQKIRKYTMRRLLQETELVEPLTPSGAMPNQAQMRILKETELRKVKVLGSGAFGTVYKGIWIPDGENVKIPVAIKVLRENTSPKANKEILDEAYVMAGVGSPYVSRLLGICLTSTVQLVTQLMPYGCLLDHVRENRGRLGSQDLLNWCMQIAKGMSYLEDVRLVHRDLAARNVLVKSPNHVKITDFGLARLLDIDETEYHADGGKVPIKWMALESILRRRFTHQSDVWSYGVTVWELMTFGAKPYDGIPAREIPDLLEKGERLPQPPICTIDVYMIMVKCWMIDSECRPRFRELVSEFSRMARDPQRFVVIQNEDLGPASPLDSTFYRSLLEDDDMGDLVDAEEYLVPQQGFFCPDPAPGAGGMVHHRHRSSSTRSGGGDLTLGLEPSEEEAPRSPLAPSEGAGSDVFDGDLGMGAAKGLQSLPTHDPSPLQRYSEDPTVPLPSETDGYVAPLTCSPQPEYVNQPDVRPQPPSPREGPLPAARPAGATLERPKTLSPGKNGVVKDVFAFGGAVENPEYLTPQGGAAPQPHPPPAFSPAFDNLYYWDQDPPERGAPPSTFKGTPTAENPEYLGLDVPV
TEST_READOUT: IC50 (nM)
Could you give me the number in nM? Just the number is fine.

Ask: HER2 (Homo sapiens) / IC50 / COc1cc(/C=C/S(=O)(=O)c2ccccc2)cc(OC)c1OC [VF16] : value?
Reply: 312

---

# STUDY_SYSTEM: EGFR-TK (epidermal growth factor receptor tyrosine kinase) (Homo sapiens, UniProt P00533)
# Sequence (P00533 712-979 limits assumed): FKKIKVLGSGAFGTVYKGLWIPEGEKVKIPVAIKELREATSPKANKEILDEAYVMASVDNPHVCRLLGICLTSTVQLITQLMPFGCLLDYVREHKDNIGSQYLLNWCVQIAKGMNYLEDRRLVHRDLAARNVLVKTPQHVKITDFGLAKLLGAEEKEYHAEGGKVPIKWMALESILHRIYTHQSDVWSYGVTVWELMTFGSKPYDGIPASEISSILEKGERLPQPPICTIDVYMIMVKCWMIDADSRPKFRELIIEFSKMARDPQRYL
TEST_READOUT: IC50
Answer shape: numeric part, then the unit.

Ask: Query IC50 on EGFR-TK (epidermal growth factor receptor tyrosine kinase) (Homo sapiens, UniProt P00533) for COc1cc(/C=C/S(=O)(=O)c2ccccc2)cc(OC)c1OC
Reply: 7.85 nM

src = paper PMC8069501
